# protocol_summary: Apparent volume of distribution in Beagle dog at 0.5 mg/kg, iv by LC-MS/MS analysis
# Type: ADME, organism-based, Canis lupus familiaris
# experimental_parameters: in vivo, read-out: Vz
experimental_readout: Vd

Task: Data request, read-out Vd, for O=C(O)CNC(=O)c1ncc(C#CCOc2ccc(Cl)cc2)cc1O
Output: 3.34 L/kg

---

# protocol_summary: MRT (0 to infinity) in Sprague-Dawley rat at 1 mg/kg, iv by LC-MS/MS analysis
# Assay type: ADME, organism-based
# experimental_parameters: in vivo
experimental_readout: MRT inf (h)
Give just the numeric value; h need not be written.

Task: # MRT inf lookup, item O=C(O)CNC(=O)c1ncc(C#CCOc2ccc(Cl)cc2)cc1O [DDO-3055]
Output: 3.44
